molecular target: P2X7 receptor (Homo sapiens (Human), UniProt Q99572); test: P2X7 FLIPR assay: antagonism of BzATP response in 293 HEK cells stably expressing P2X7 receptor; type: cell-based; details: FLIPR fluorescence (Fluo-4), agonist BzATP, 293 HEK cells stably transfected with P2X7 receptor
Sequence (Q99572 whole entry): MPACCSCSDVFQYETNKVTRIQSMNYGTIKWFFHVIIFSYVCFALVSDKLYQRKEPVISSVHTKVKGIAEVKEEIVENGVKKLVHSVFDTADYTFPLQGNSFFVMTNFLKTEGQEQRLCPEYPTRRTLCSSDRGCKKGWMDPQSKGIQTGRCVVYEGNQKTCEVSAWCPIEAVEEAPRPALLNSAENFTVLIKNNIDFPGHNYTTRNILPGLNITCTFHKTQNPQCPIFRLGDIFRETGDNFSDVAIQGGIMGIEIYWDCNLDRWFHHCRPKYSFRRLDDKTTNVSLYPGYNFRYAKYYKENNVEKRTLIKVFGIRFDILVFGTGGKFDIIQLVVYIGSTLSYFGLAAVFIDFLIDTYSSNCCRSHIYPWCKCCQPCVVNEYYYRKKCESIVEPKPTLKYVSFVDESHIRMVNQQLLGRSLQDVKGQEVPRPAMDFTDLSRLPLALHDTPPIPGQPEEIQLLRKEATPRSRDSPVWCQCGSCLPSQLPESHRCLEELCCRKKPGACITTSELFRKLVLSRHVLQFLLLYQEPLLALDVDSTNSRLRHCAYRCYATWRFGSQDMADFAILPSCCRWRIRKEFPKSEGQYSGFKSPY
The reader will find reported IC50 values listed item by item below.
Provide the reading as a plain figure in nM.

Example molecules with recorded IC50:
O=C(NCC(c1cnc(C2CC2)nc1)N1CCC(F)(F)CC1)c1cccc(Cl)c1Cl (single isomer, unassigned; (-)) [(−)2,3-dichloro-N-[2-(2-cyclopropylpyrimidin-5-yl)-2-(4,4-di]; 3.5
Cc1ncc(C(CNC(=O)c2c(Cl)ccc(F)c2Cl)N2CCC(F)(F)CC2)cn1 (single isomer, unassigned; (+)) [(+)2,6-dichloro-N-[2-(4,4-difluoro-1-piperidyl)-2-(2-methylp]; 25

Next, consider the following molecule.
Give the value of IC50 reported for the following: O=C(NCC(c1cnc(C(F)(F)F)nc1)N1CCOCC1)c1ccc(Cl)cc1Cl (stereo not drawn) 12

---

Target: P2X7 receptor (Homo sapiens (Human))
Assay: P2X7 FLIPR assay: antagonism of BzATP response in 293 HEK cells stably expressing P2X7 receptor
Settings: FLIPR fluorescence (Fluo-4), agonist BzATP, 293 HEK cells stably transfected with P2X7 receptor
Protocol: Cells were plated to cell density of approximately 15,000 cells/well in 384-well assay plates (50 μl/well) with 1.5% low serum media (DMEM, 1.5% BCS, 1% L-glut (2 mM), 1% P/S). […] Compound mixtures (A) were added to assay plates containing cells and placed at room temperature for 30 minutes, then BzATP (B) was added. Fluorescence was read using the Tetra FLIPR® (Molecular Devices, Inc., Sunnyvale, Calif., USA) and IC50 values were calculated by standard methods to determine antagonist activity.
Field 'label' (enum: TRUE / FALSE). Set to TRUE when IC50 is strictly under 10 nM; else FALSE.

Cc1ccc(Cl)c(C(=O)NCC(c2cccnc2)N2CCOCC2)c1 (centres unmarked); FALSE

Item CCc1ncc(C(CNC(=O)c2ccccc2Cl)N2CCC(F)(F)CC2)cn1 (single isomer, unassigned; (+)) [(+)2-chloro-N-[2-(4,4-difluoro-1-piperidyl)-2-(2-ethylpyrimi] : IC50 beneath 10 nM, strictly? FALSE

Item COc1ccccc1C(=O)NCC(c1ccc(C(F)(F)F)nc1)N1CCOCC1 (single isomer, unassigned; (+)) [(+)-2-methoxy-N-(2-morpholino-2-(6-(trifluoromethyl)pyridin-] : IC50 beneath 10 nM, strictly? FALSE

---

biological target: P2X7 receptor (Homo sapiens (Human)); experiment: P2X7 FLIPR assay: antagonism of BzATP response in 293 HEK cells stably expressing P2X7 receptor; details: FLIPR fluorescence (Fluo-4), agonist BzATP, 293 HEK cells stably transfected with P2X7 receptor
The reader will find reported IC50 values listed item by item below.
Provide the reading as a plain figure in nM.

O=C(NCC(c1cnc(C(F)(F)F)nc1)N1CCC(F)CC1)c1c(Cl)cccc1Cl (single isomer, unassigned; (-)) [(−)2,6-dichloro-N-[2-(4-fluoro-1-piperidyl)-2-[2-(trifluorom]; 15
O=C(NCC(c1cnc(C(F)(F)F)nc1)N1CCC(F)CC1)c1c(Cl)cccc1Cl (single isomer, unassigned; (+)) [(+)2,6-dichloro-N-[2-(4-fluoro-1-piperidyl)-2-[2-(trifluorom]; 6.1

Send back P2X7 receptor (Homo sapiens (Human)) IC50 of COc1cccc(C(=O)NCC(c2cnc(C(F)(F)F)nc2)N2CCOCC2)c1Cl (single isomer, unassigned; (+)) [(+)2-chloro-3-methoxy-N-[2-morpholino-2-[2-(trifluoromethyl)] only. 16

Send back P2X7 receptor (Homo sapiens (Human)) IC50 of O=C(NCC(c1cnc(C2CC2)nc1)N1CCC(F)(F)CC1)c1c(F)cccc1Cl (single isomer, unassigned; (-)) [(−)2-chloro-N-[2-(2-cyclopropylpyrimidin-5-yl)-2-(4,4-difluo] only. 11
